Test: in vitro
Conditions: human, MRC5 cells
Description: Cytotoxicity against human MRC5 cells assessed as inhibition of cell proliferation incubated for 72 hrs by celltiter-glo assay

compound: CC(C)=CCc1c(O)cc(/C=C/c2cc(O)c3c(c2)C[C@@H]2C(C)(C)[C@H](O)CC[C@@]2(C)O3)cc1O [SCHWEINFURTHIN G]
IC50 at 72 h [nM]: 300

---

Assay: in vitro
Conditions: human, RPE-1 cells (TERT-RPE1)
Description: Cytotoxicity against human RPE-1 cells assessed as inhibition of cell proliferation incubated for 72 hrs by celltiter-glo assay
measure name: IC50 at 72 h (nM)

input smiles: CC(C)=CCc1c(O)cc(/C=C/c2cc(O)c3c(c2)C[C@@H]2C(C)(C)[C@H](O)CC[C@@]2(C)O3)cc1O
test value: 400
